molecular target: T1, human LILRB2 expressed on cells (293T-LILRB2, CHO-K1-LILRB2) (human, UniProt Q8N423 22-597); experiment: flow cytometry, blockade of His-tagged HLA-G tetramer binding to 293T-LILRB2 cells; fit table under the graph
T1 construct: whole, on cells; the cell line is named under assay; also called HEK293T-LILRB2
T1 sequence (Q8N423 22-597): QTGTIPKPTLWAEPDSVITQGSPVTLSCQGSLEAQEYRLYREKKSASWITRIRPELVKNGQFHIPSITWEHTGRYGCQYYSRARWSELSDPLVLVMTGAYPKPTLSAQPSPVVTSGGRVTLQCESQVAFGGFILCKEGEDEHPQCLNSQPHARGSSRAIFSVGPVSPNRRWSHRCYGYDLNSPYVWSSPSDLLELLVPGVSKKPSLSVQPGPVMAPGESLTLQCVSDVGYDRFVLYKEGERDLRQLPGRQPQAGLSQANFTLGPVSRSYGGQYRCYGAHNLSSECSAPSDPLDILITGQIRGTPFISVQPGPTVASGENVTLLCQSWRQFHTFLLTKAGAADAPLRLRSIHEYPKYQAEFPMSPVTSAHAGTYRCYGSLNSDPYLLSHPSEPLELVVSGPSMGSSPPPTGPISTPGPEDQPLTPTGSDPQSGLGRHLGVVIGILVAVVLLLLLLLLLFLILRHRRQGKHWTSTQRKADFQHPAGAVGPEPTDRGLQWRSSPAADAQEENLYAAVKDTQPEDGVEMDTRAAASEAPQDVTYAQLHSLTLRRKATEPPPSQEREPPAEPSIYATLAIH
I'd appreciate it if you could supply Span values for the items below.
Answers are plain numbers, in RFU.

>>> number("Antibody h#2D2 (antibody, V domains shown, Humanized variant of 11B12) VH: EVQLVESGGGLVQPGGSLRLSCAVSGYSITSGYYWNWIRQAPGKGLEWVAYISYDGNNNYNPSLKNRFTISRDASKNTFYLQMNSLRAEDTAVYYCAREESTMITTAWFAYWGQGTLVTVSS VL: DIQMTQSPSSLSASVGDRVTITCRASENIYSNLAWYQQKPGKAPKLLIYGATNLASGVPSRFSGSGSGTDYTLTISSLQPEDFATYYCQHFWDTPYTFGQGTKVEIK")
7640
>>> number("Antibody 2E1_GB11 (antibody, V domains shown) VH: EVQLVESGGGLVQPGGSLRLSCAVSGYSITSGYYWNWIRQAPGKGLEWVAYISYDGNNNYNPSLKNRFTISRDTSKNTFYLQMNSLRAEDTAVYYCAREESTMITTAWFAYWGQGTLVTVSS VL: DIQMTQSPSSLSASVGDRVTITCRASENIYSNLAWYQQKPGKAPKLLIYGATNLALGVPSRFSGSGSGTDYTLTISSLQPEDFATYYCQHFWDTPYTFGQGTKVEIK")
8170

# next binder below
Requested field: Span. Item: Antibody 2E1_FC11 (antibody, V domains shown, also called A16) VH: EVQLVESGGGLVQPGGSLRLSCAVSGYSITSGYYWNWIRQAPGKGLEWVAYISYDGNINYNPSLKNRFTISRDTSKNTFYLQMNSLRAEDTAVYYCAREESTMITTAWFAYWGQGTLVTVSS VL: DIQMTQSPSSLSASVGDRVTITCRASENIYSNLAWYQQKPGKAPKLLIYGATNLASGVPSRFSGSGSGTDYTLTISSLQPEDFATYYCQHFWDYPYTFGQGTKVEIK 8620
